# TARGET ENTITY: CB1 (mutant) (Homo sapiens, UniProt P21554)
# Sequence (P21554 1-417, change not shown): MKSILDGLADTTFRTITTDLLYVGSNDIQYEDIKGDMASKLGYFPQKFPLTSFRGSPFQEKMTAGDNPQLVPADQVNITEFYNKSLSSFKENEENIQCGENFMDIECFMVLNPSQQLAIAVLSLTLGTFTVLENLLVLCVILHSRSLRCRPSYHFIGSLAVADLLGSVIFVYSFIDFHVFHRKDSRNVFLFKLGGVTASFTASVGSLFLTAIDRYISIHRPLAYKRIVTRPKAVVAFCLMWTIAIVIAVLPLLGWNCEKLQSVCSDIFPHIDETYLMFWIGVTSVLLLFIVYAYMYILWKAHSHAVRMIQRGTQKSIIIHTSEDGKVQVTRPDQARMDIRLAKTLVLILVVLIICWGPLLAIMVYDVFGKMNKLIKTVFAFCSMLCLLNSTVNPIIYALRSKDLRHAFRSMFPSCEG
# PROCEDURE SUMMARY: R-SAT functional receptor assay, CB1 (mutant, truncated after amino acid 417)
# Type: cell-based
# APPLIED CONDITIONS: Appendix A; R-SAT CB1; receptor form not stated; relative to SR141716 (100%); read-out: % Inhibition
Could you mark each record Met if its Emax falls strictly under 90%, and Not met if it equals or exceeds it?

COMPOUND	LABEL VALUE
O=C(NCc1ccccc1Cl)c1ccc2c(c1)N=C(c1ccccc1F)c1ccccc1S2 [drawing 622]	Met

Is the reported Emax for O=C(NNC(=O)c1ccc2c(c1)N=C(c1ccc(Cl)cc1)c1ccccc1S2)c1ccccc1 strictly below 90%? Met

Thanks! And Cc1ccc(CNC(=O)c2ccc3c(c2)N=C(c2ccc(F)cc2)c2ccccc2S3)o1 [drawing 577] ? Met

Thanks! And CC(CNC(=O)c1ccc2c(c1)N=C(c1ccc(Cl)cc1)c1cc(F)ccc1S2)c1ccccc1 (stereo not shown) [drawing 1173] ? Not met
